B1: F1*; the commonest letter at each place (parent)
chain: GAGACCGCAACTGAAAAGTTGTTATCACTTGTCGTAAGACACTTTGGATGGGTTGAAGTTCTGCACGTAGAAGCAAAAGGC

- Variants of: B1
- Experiment: fraction ligated after 30 min (ligated reads / total reads); higher = more ligase activity
- Setup conditions: with F1*sub RNA substrate (template-directed ligation), 42 °C
Binary call on fraction ligated: yes from 0.8 upward, no beneath that.

Please review the entries below; each comes with its answer.
>  <Monomer sequence>
GAGACCGCAACTGAAAAGTTGTTATCACTTGTGGGAAGACACTTTGGATGGGTTGAAGTTCTGCACGTAGAAGCAAAAGGC

>  <Assigned class>
yes

$$$$
>  <Monomer sequence>
GAGACCGCAACTGAAAAGTTGTTATCACTTGTCGTATGACACTTTGGTTGGGTTGAAGTTCTGCACGTAGAAGCAAAAGGC

>  <Assigned class>
no

$$$$
>  <Monomer sequence>
GAGACCGCAACTGAAAAGTTGTTATCACTTGTCGTGAGACACTTTGGATAGGTTGAAGTTCTGCACGTAGAAGCAAAAGGC

>  <Assigned class>
no

$$$$
>  <Monomer sequence>
GAGACCGCAACTGAAAAGTTGTTATCACTTGTCGTAAGACACTTTGGATGGGTTCGCGTTCTGCACGTAGAAGCAAAAGGC

>  <Assigned class>
no

$$$$

Please check the record `GAGACCGCAACTGAAAAGTTGTTATCACTTGTCGTGAGACACTTTGGATGGGTTGAAGTTCTGCACGTAGAAGCAAAAGGC` and state if its fraction ligated is at or above 0.8.
yes

Please check the record `GAGACCGCAACTGAAAAGTTGTTATCACTTGTCGTCAGACACTTTGCATGGGTTGAAGTTCTGCACGTAGAAGCAAAAGGC` and state if its fraction ligated is at or above 0.8.
no

Please check the record `GAGACCGCAACTGAAAAGTTGTTGTCGCTTGTCGTAAGACACTTTGGATGGGTTGAAGTTCTGCACGTAGAAGCAAAAGGC` and state if its fraction ligated is at or above 0.8.
no
